Target Or System: AgBzz1-D1
Assay Overview: SPOT peptide array binding signal intensity (averaged, normalized) (arbitrary units (background-subtracted, floor 0; scale differs between SH3 domains)); higher = stronger binding of the SH3 domain to the peptide
Value Type: SPOT peptide array binding signal intensity

[
  {
    "Binder": "RRRDFGAPANKRPRR",
    "Qualifying Sign": "=",
    "Value": 60
  },
  {
    "Binder": "PPIPIVPSSPAPPLP",
    "Qualifying Sign": "=",
    "Value": 28
  },
  {
    "Binder": "SHRLWLYAAPKRPKT",
    "Qualifying Sign": "=",
    "Value": 46
  },
  {
    "Binder": "LYKRKPILLPDPKPL",
    "Qualifying Sign": "=",
    "Value": 44
  },
  {
    "Binder": "LFMKGTPEFPKSGFS",
    "Qualifying Sign": "=",
    "Value": 8.5
  },
  {
    "Binder": "HVRRSILALPLGVLL",
    "Qualifying Sign": "≤",
    "Value": 0
  },
  {
    "Binder": "EQEEIAPSLPSRNSI",
    "Qualifying Sign": "=",
    "Value": 10.5
  }
]

Source listed as the supplement of paper PMC4466140.
